System: MS2 coat protein
Test Summary: apparent KD of MS2 coat protein; designed switch direction (-1 OFF switch, 1 ON switch): 1; higher = weaker reporter binding
Protocol Conditions: input ligand: microRNA oligo, concentration not stated
Listing: apparent KD of MS2 coat protein of selected sequences
Please format your answer as a value with the unit trailing.

Exercise: Using the record for CACAUGAGGAUCACCCAUGUGAGGCGGCAAUAAAACCGCGCACAGGAUAUAGCGCUAAGAAAGCGCUAGAAGGGUGAUUAGAAC [Gerelabies] (Eterna round: R96, puzzle: Same State NG 3) , report its apparent KD of MS2 coat protein.
Key: 20.8 nM

Exercise: # iterate: UUGAAGAAUUAAGGAUAUCGAGUCGUCUAAUUAAACAUGAGGAUCACCCAUGUGGGUUGCGGUAUCGAGAAGGUAAAUUACUAA [JL JR Sub099 mod 1] (Eterna round: R96, puzzle: Same State NG 2)
Key: 20.6 nM

Exercise: # iterate: GCUCGGAUGAUGGCCCACAUGAGGAUCACCCAUGUGAGUGGGCAGGAUAUCUAGAUUAAGGAUGUAGAGAAGGGCCUACCGAGC [SameState NG3 #34] (Eterna round: R96, puzzle: Same State NG 3)
Key: 100 nM

Exercise: # iterate: UUAGAAUUGCAAGGAUAUCUAAUUUAGAUAGUAAGAGAAGGUGCUUUAUAGUUACAUGAGGAUCACCCAUGUUUUUUUGUUUAU [JR_SSNG1_Sub059] (Eterna round: R96, puzzle: Same State NG 1)
Key: 26.5 nM

Further cases:
Exercise: Using the record for AUGGGCAUGCUAGGAUAUUAUAGUAGGCAGCAAUGAGAAGGAGUAUCCCGUUGCUAUCACGCACCACAUGAGGAUCACCCAUGU [Eternabot solution 32] (Eterna round: R96, puzzle: Same State NG 1) , report its apparent KD of MS2 coat protein.
Key: 19.5 nM

---

System: MS2 coat protein
Test Summary: apparent KD of MS2 coat protein; higher = weaker reporter binding
Protocol Conditions: Eterna round: R107; input ligand: arginine 13.2 mM
Value Type: apparent KD of MS2 coat protein (nM)
Quick note: give the figure in nM, leave out the unit.

Exercise: Identify the measured apparent KD of MS2 coat protein of GCAUCCUAGUCGGCCGCCACUACAACAUGAGGAUCACCCAUGUGUGGGAGAUCCGUCCUACGAAGUAGGACCGGGACUAGGAUGC [(T1)-(M1)-(M2)-(T)''-(M)'-(T)'-(T2)_Design5_2/18/17] for MS2 coat protein.
Key: 110

Exercise: # iterate: AAACAUGAGGCGGCCGCCACUGUAUGAACAUGAGGAUCACCCAUGUAUGUACCCAUGUGUGUACACAGGACCGGGCCAUGUGGAU [Exclusion Tryptophan B 4]
Key: 24.8

Exercise: # iterate: AUGCAUAGCACGGCCGCCACUCCAUGUAAACAUGAGGAUCACCCAUGUAAUUUGGAUGUUUUAUAGAGGACCGGGUGAAAUGCAA [JR_ExcTryptoB_Sub004]
Key: 8.42

Exercise: # iterate: AAGGUAUCACAGAGGUGAUUCAACUGUGAUACCAGCUAGGAAACUAGCCCUUGGCAGCACAUGAGGAUCACCCAUGUAAGAAUAA [(T)'-(M)'-(T1)-(T2)-(M1)-(M2)_Design3_2/19/17]
Key: 36.3

Further cases:
Exercise: Identify the measured apparent KD of MS2 coat protein of UGGGUACAUGAGGAUCACCCAUGUACUGAAGGAGCGAGAAUUAUCUCAGGUAGGUCGCAGACAUGAGGAUCACCCAUGUAGUGGG [Exclusion Arginine A GF 13] for MS2 coat protein.
Key: 15

---

Tested on: K4 kissing-loop RNA reporter
Test Summary: apparent KD of K4 kissing-loop reporter; higher = weaker reporter binding
Protocol Conditions: Eterna round: R107; input ligand: FMN 200 uM
Decide using apparent KD of K4 kissing-loop reporter: a value greater than or equal to 0.2 µM is met, a smaller one is not met.

Consider the following illustrative entries.
Exercise: Hi team, for AUACAUGUAAAUCUAUAUGUAUAAUGGAGCCGAGGACCGGUACGGCCGCCACUCGGAGUAAUCGGAGUGAUGUUCCGAAAUGUAC [KL-SSTryp-A sub13] , is the recorded apparent KD of K4 kissing-loop reporter at or above 0.2 µM?
Key: not met

Exercise: # iterate: UAUACACAGGGAGGAUAUGCCCACACAACAACCGAGUGAUGUUCGGACAAUACACAUAAUACACGGGCAGAAGGCCCACAUCACA [SS FNM B Tesla 1]
Key: not met

Exercise: # iterate: GUAUAUUAGGGAGACCUAAUAUAAAUAGAAGGAGCGUAGGAAACUACAGGUAGGUCGCUAAAUAUACAGUGAUGUUGUAUAAUGG [arg a same]
Key: not met

Exercise: # iterate: UAUAUAUGAUGUGAUACCAGUGAAAAGCCAGUGAUGUUGGUAGAACUGGUAUAUAAAUAACACCCUUGGCAGCACAAUCACGUAU [whbob_Ex_Theo_B_sa96]
Key: not met

Consider the record given below.
Exercise: Hi team, for GAUGGUCGAGAAGGAUAUGUGACUACCAGAAGGAAAUUCAGUGAUGUUGAUUGUCGCGAGCAGGAGACAGAAGGUCUCAGACAUA [theeternabot_exclusion_KL_FMN_B_5] , is the recorded apparent KD of K4 kissing-loop reporter at or above 0.2 µM?
Key: met

---

Listing: apparent KD of MS2 coat protein of selected sequences
Test system: MS2 coat protein
Test Summary: apparent KD of MS2 coat protein; designed switch direction (-1 OFF switch, 1 ON switch): -1; higher = weaker reporter binding
Protocol Conditions: Eterna round: R95; input ligand: microRNA oligo, concentration not stated
Quick note: give the figure in nM, leave out the unit.

Exercise: Using the record for AGUACUAACACGCCUGUGUUAGUACAAUAAGCUUGUGAAACAUGAGGAUCACCCAUGUCCUCAUAAGCUCGUCUUAU [salish99_TOv2_r3_077] (puzzle: Sensor v3, turn-off variant 2) , report its apparent KD of MS2 coat protein.
Key: 671

---

Test system: MS2 coat protein
Test Summary: apparent KD of MS2 coat protein; designed switch direction (-1 OFF switch, 1 ON switch): -1; higher = weaker reporter binding
Protocol Conditions: input ligand: none
Listing: apparent KD of MS2 coat protein of selected sequences
Quick note: give the figure in nM, leave out the unit.

Use these answered entries as a reference point.
Exercise: Using the record for CUCAUGUGAGGAUAUGUGCUGAUCUGUACUGUGAUUAGAGAACAGAAGGUACAUGAGGAUCACCCAUGUACACG [Eternabot (L2) Solution 46] (Eterna round: R97, puzzle: Exclusion 4) , report its apparent KD of MS2 coat protein.
Key: 14.7

Exercise: # iterate: GUCACAUGGACAUAGGAUCACAUGAGGAUCACCCAUGUGACUAACAAGCUUUUUGCUCGUCUUAUGUCCAUGUGAAG [Stov1/15-A1] (Eterna round: R97, puzzle: Sensor, turn-off variant 1)
Key: 11.7

Exercise: # iterate: AAAAGCCUAGGAUAUACUUGAGGAUCACCCAAGUAGGGUCCCAUGGACCCGUCCUCGUGUAGAAGGAGGAAAAG [Dierlabe] (Eterna round: R97, puzzle: Exclusion 3)
Key: 60.5

Exercise: # iterate: AAAGUGCUGCGAGGAUAUACAUGAGGAUCACCCAUGUGGAUGUCUGAGGCAAAGCCUCAGACAAUGUAGAAGGCGCAGUACUAA [Mat - Exclusion NG 2 - Mod of JL - D56] (Eterna round: R96, puzzle: Exclusion NG 2)
Key: 27

Let us examine a further case.
Exercise: Using the record for CGCCUGUUAGGAUAUUAGUAGUAGUCAGAAUAGACUAUUACUGAGAAGGAACAUGAGGAUCACCCAUGUUGGCG [Eli x4 4.13] (Eterna round: R97, puzzle: Exclusion 4) , report its apparent KD of MS2 coat protein.
Key: 15.5

---

Test system: K4 kissing-loop RNA reporter;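 note: bound reporter read as fluorescence of individual clusters on recovered sequencing chips by microscopy, with normalized cluster intensities fitted with a binding model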
Test Summary: apparent KD of K4 kissing-loop reporter; higher = weaker reporter binding
Protocol Conditions: Eterna round: R107; input ligand: none
Decide using apparent KD of K4 kissing-loop reporter: a value greater than or equal to 200 nM is MET, a smaller one is NOT MET.

Exercise: Hi team, for UGUCAUUGGUCGGCCGCCACUUCAUAUAGAGUGAUGUUCUGAAAGACGGAUCGAAAGAUCUGUCGAAGGACCGGGACCGAUGACU [FiskerMod 12 - Jieux - Same State - Tryptophan B] , is the recorded apparent KD of K4 kissing-loop reporter at or above 200 nM?
Key: MET

Exercise: # iterate: AAACGUUGGUGCGAUACCAGCUGCUCGGAAACGAGCUUGCUGGAGUGAUGUUCCAGGAAAAGCCCUUGGCAGCGCACCGACGAAA [MAT - Same State Theophlline B - Mod of Eli - D27]
Key: MET

Exercise: # iterate: ACCAUCAAAGAUGGCCAGGACACCGCUGAUACCAGAGUGAAAACACUCCCUUGGCAGCAGGUGAGUGAUGUUCACAGUCCAUGGA [Omel KL Theo A SS B v2]
Key: MET

Further cases:
Exercise: Hi team, for UAGGAGUGAUGUUCCAUGUCUUGAGCCGAAGGAGCGCCUUUCUAGGCAGGUAGGUCGCGGCAGAAGGUACCAGUGAUGUUGGAAA [Same State Arginine A GF8] , is the recorded apparent KD of K4 kissing-loop reporter at or above 200 nM?
Key: MET

Exercise: # iterate: GAUUAAUAAGAGGAUACCAGUACUAAUAAAGUACAUUAAUAGUAGAGUGAUGUUCUAAAGUACCCUUGGCAGCUUAGAGUAAGUU [#08 K4 Theophylline B Exclusion]
Key: NOT MET

Exercise: # iterate: CGAUUUGCUUCAGCCUUAGUGAUGUUAAGGCGAGGACCGGUACGGCCGCCACUCGUAGGUUAUGUGCACGGCGGCGCUAAGGGCC [theeternabot_exclusion_KL_Trp_A_36]
Key: NOT MET

Exercise: # iterate: CCUGCCAGCACGGCCGCCACUUCUAUUGUAUCUAUUUUUGUAAUCCUUUAGGAGUGAUGUUUUUAAAGGACCGGGUGAUGGCUGA [theeternabot_exclusion_KL_Trp_B_14]
Key: MET

Exercise: # iterate: "AUGGGCGAGGUAACGUGGAUAUCUCGUCGCAAGGAUAUCUGGAAACAGAGAAGGUGCUACAUUACCGGCAGUGAUGUUGCUGACC"
Key: MET

Exercise: # iterate: GUGCAGUGAUGUUGCACGAGGAAAGACGAUACCAGCCGUAAAUAAGGCCCUUGGCAGCGUGGGCUAGCACAAAAUAUGCUAGUCU [Laleingeat]
Key: NOT MET

Exercise: # iterate: UUCUUGAUGGAAACAUCGAGGAUCACUGAUACCAGUAUCGAUAGAUACCCUUGGCAGCAGUGUCGGUGGUCACGAGUGAUGUUCG [Ex Theophylline A K4 12]
Key: MET

Exercise: # iterate: CCAGAAUAAUGAAGAUGAUAAAUUACUGAAGGAGCGCAUAUAGUUGCAGGUAGGUCGCGGUGAAUAAGUAUAGUGAUGUUAUACC [SSArgA.Ad]
Key: MET

Exercise: # iterate: CGCCGCAAGGCGGUCCUGCCCACUCCGGAAGGAGCGCCCGCAAGGGCAGGUAGGUCGCCGGAGUGAUGUUCCGGUGGCAGGACCG [#2 Exclusion - Arginine A Attempt #4 (Inspired by Omei)]
Key: MET

Exercise: # iterate: UAAUAUCCGUCGGCCGCCACUCACCAGUGAUGUUGGAGGAGUGAUGUUCCACGAGUGAUGUUCGAGAGGACCGGGACGGACGAUG [6th]
Key: NOT MET

Exercise: # iterate: UGAUUAAGCAGUGAUGUUGCAAGUAAUGAUACCAGUUAAGAAGAGAACCCUUGGCAGCAUAAAGUGCGCUCUGAUGAGUGUGCUU [whbob_SS_Theo_A_w53]
Key: NOT MET

Exercise: # iterate: CUUGAUGUGUCGGCCGCCACUGGUAUAGGCGGACUAUAACGACAUGAGUGAUGUUCAUGUUCGUCUAGGACCGGGACACAUUGUA [Tryp B SS t4]
Key: NOT MET

Exercise: # iterate: AGCUAUUAGACGGCCGCCACUUGCUCUGAGACCUGACAUGGAACCAGUGAUGUUGGUUUGCGUGUAAGGACCGGGUUUGGUGGCG [Tiesbi]
Key: NOT MET

Exercise: # iterate: CUAGCCGGGAAAGGAUAUACACACGCACAUAACGAGUGAUGUUCGUUAAUACCAACUUGGUUAACUGUAGAAGGUUCAUCGUCAC [theeternabot_sameState_KL_FMN_B_36]
Key: MET

Exercise: # iterate: "GCCUGGGCCCGAAGGAGCGCCGUGACAGGUUACUGCAUUGAGCAGUGAUGUUGCUCAAUCUGGCAGGUAGGUCGCGGGCCCAGGC"
Key: NOT MET

Exercise: # iterate: GCCUAGCAGGGAAGGAGCGCCAGGAGAAGAAAUGGAGAGAGUUGAGUGAUGUUCAAAUGGUGGCAGGUAGGUCGCCCUGCUAGGC [KL-SSArg B12]
Key: MET
